- Target of assay: Ubiquitin carboxyl-terminal hydrolase 1 (Homo sapiens) (UniProt O94782)
- Sequence (O94782 whole entry, looked up): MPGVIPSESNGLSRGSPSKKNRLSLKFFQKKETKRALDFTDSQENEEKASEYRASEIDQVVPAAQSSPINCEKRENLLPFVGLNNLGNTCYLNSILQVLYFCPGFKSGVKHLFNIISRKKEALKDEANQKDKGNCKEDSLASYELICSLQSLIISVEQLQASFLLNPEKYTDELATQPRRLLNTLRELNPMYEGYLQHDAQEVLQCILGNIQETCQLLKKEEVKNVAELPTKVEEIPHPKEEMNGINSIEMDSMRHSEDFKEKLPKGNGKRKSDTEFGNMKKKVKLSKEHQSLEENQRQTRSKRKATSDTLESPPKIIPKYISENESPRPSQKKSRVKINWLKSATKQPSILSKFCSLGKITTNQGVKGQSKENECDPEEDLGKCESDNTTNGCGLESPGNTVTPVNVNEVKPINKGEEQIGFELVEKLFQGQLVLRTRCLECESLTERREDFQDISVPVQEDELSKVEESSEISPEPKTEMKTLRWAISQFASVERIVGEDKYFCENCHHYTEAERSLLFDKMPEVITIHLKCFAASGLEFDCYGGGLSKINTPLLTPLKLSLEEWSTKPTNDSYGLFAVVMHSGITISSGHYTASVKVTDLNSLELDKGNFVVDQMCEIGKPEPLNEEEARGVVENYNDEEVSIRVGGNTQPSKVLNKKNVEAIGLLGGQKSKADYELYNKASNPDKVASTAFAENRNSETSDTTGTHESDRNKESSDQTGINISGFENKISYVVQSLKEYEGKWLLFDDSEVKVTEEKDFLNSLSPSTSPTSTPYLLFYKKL
- Test: Inhibitors of USP1/UAF1: Pilot qHTS (AID 504865); also: nearly all actives have a fitted effect of over 35% in size
- Cond: purified USP1/UAF1, Ub-rhodamine cleavage fluorescence; series mostly up to 54.9 µM
Results filed as inconclusive are left out. Active and inactive are the calls of the source. Calls follow the shape of the dose curve; as a rule, active = well fitted inhibition curve with a large enough effect; inconclusive = small, poorly fitted or top-dose-only effect; inactive = flat fitted curve, though single readings scatter.
Outcomes: active, inactive

[[record]]
chemical_structure = "COCCn1c(=O)c(-c2ccccc2)nc2cnc(OC)nc21"
qualitative_label = "inactive"

[[record]]
chemical_structure = "CN(C)c1nc(-c2ccoc2)nc2ccccc12"
qualitative_label = "active"

[[record]]
chemical_structure = "COc1ncc2nc(C)c(=O)n(C3CC3)c2n1"
qualitative_label = "inactive"

[[record]]
chemical_structure = "COc1cccc(Nc2ncc3nc(C)c(=O)n(Cc4cccs4)c3n2)c1"
qualitative_label = "inactive"

[[record]]
chemical_structure = "CS(=O)(=O)Nc1cccc(-c2cncnc2NCc2cccs2)c1"
qualitative_label = "inactive"

[[record]]
chemical_structure = "Cc1cnc(CNc2ncncc2-c2ccccc2C#N)cn1"
qualitative_label = "inactive"

[[record]]
chemical_structure = "COc1ccc(-n2c(=O)cnc3cnc(OC)nc32)cc1"
qualitative_label = "inactive"

[[record]]
chemical_structure = "COCCn1c(=O)c(-c2cn(C)c3ccccc23)nc2cnc(N3CCOCC3)nc21"
qualitative_label = "inactive"

[[record]]
chemical_structure = "COc1cccc(-c2cncnc2NC2CCNCC2)c1"
qualitative_label = "inactive"

[[record]]
chemical_structure = "CN(C)Cc1ccccc1-c1cncnc1Nc1ccncc1"
qualitative_label = "inactive"

[[record]]
chemical_structure = "Cn1c(=O)c(-c2ccccc2)nc2cncnc21"
qualitative_label = "inactive"

[[record]]
chemical_structure = "N#Cc1cccc(-c2nc(N3CCNCC3)c3ccccc3n2)c1"
qualitative_label = "inactive"

